Just for reference, patent US20250275940A1 is where these values come from.

# PROTOCOL TEXT: Plasma and extravascular levels of pterostilbene after oral administration
# Assay type: in vivo
# CONDITION: Swiss albino, mouse, plasma, 200 mg/kg b.w.; mice, 200 mg Pter/kg b.w. oral, 10 min; read-out: Pter in Plasma
PARAMETER: concentration at 10 min (µM)

MOLECULE | PARAMETER | ASSAY RESULT
COc1cc(/C=C/c2ccc(O)cc2)cc(OC)c1 [PT, 3,5-dimethoxy-4′-hydroxystilbene] | concentration at 10 min | 18

====

# PROTOCOL TEXT: Plasma and extravascular levels of pterostilbene after oral administration
# Assay type: in vivo
# CONDITION: Swiss albino, mouse, liver, 200 mg/kg b.w.; mice, 200 mg Pter/kg b.w. oral, 10 min; read-out: Pter in Liver

MOLECULE | concentration at 10 min
COc1cc(/C=C/c2ccc(O)cc2)cc(OC)c1 [PT, 3,5-dimethoxy-4′-hydroxystilbene] | 8 µM

====

# PROTOCOL TEXT: Plasma and extravascular levels of pterostilbene after oral administration
# Assay type: in vivo
# CONDITION: Swiss albino, mouse, kidney, 200 mg/kg b.w.; mice, 200 mg Pter/kg b.w. oral, 10 min; read-out: Pter in Kidney

MOLECULE | concentration at 10 min (µM)
COc1cc(/C=C/c2ccc(O)cc2)cc(OC)c1 [PT, 3,5-dimethoxy-4′-hydroxystilbene] | 4

====

# PROTOCOL TEXT: Plasma and extravascular levels of pterostilbene after oral administration
# Assay type: in vivo
# CONDITION: Swiss albino, mouse, liver, 200 mg/kg b.w.; mice, 200 mg Pter/kg b.w. oral, 480 min; read-out: Pter in Liver
PARAMETER: concentration at 480 min

COMPOUND | ASSAY RESULT
COc1cc(/C=C/c2ccc(O)cc2)cc(OC)c1 [PT, 3,5-dimethoxy-4′-hydroxystilbene] | 1000 nM

====

# PROTOCOL TEXT: Plasma and extravascular levels of pterostilbene after oral administration
# Type: in vivo
# CONDITION: Swiss albino, mouse, lung, 200 mg/kg b.w.; mice, 200 mg Pter/kg b.w. oral, 240 min; read-out: Pter in Lung

COMPOUND | concentration at 240 min (µM)
COc1cc(/C=C/c2ccc(O)cc2)cc(OC)c1 [PT, 3,5-dimethoxy-4′-hydroxystilbene] | 12

====

# PROTOCOL TEXT: Plasma and extravascular levels of pterostilbene after oral administration
# Assay type: in vivo
# CONDITION: Swiss albino, mouse, lung, 200 mg/kg b.w.; mice, 200 mg Pter/kg b.w. oral, 60 min; read-out: Pter in Lung

COMPOUND | concentration at 60 min (µM)
COc1cc(/C=C/c2ccc(O)cc2)cc(OC)c1 [PT, 3,5-dimethoxy-4′-hydroxystilbene] | 35

====

# PROTOCOL TEXT: Plasma and extravascular levels of pterostilbene after oral administration
# Format: in vivo
# CONDITION: Swiss albino, mouse, brain, 200 mg/kg b.w.; mice, 200 mg Pter/kg b.w. oral, 5 min; read-out: Pter in Brain

COMPOUND | concentration at 5 min [nM]
COc1cc(/C=C/c2ccc(O)cc2)cc(OC)c1 [PT, 3,5-dimethoxy-4′-hydroxystilbene] | 2000

====

# PROTOCOL TEXT: Plasma and extravascular levels of pterostilbene after oral administration
# Format: in vivo
# CONDITION: Swiss albino, mouse, plasma, 200 mg/kg b.w.; mice, 200 mg Pter/kg b.w. oral, 120 min; read-out: Pter in Plasma
PARAMETER: concentration at 120 min (µM)

MOLECULE | ASSAY RESULT
COc1cc(/C=C/c2ccc(O)cc2)cc(OC)c1 [PT, 3,5-dimethoxy-4′-hydroxystilbene] | 46

====

# PROTOCOL TEXT: Plasma and extravascular levels of pterostilbene after oral administration
# Type: in vivo
# CONDITION: Swiss albino, mouse, plasma, 200 mg/kg b.w.; mice, 200 mg Pter/kg b.w. oral, 30 min; read-out: Pter in Plasma
# Description: Plasma and extravascular levels of pterostilbene after its oral administration to mice were studied. Mice were treated with 200 mg Pter/kg b.w. A group of 4-5 animals was sacrificed per each time point. Pter was dissolved in 2-hydroxypropyl-b-cyclodextrin, then suspended in 0.3% carboxymethylcellulose. Nondetectable=n.d. * P<0.1 comparing data obtained at 10-1440 min versus those found at 5 min.

MOLECULE | concentration at 30 min, µM
COc1cc(/C=C/c2ccc(O)cc2)cc(OC)c1 [PT, 3,5-dimethoxy-4′-hydroxystilbene] | 55

====

# PROTOCOL TEXT: Plasma and extravascular levels of pterostilbene after oral administration
# Assay type: in vivo
# CONDITION: Swiss albino, mouse, plasma, 200 mg/kg b.w.; mice, 200 mg Pter/kg b.w. oral, 5 min; read-out: Pter in Plasma

MOLECULE | concentration at 5 min (µM)
COc1cc(/C=C/c2ccc(O)cc2)cc(OC)c1 [PT, 3,5-dimethoxy-4′-hydroxystilbene] | 5

====

# PROTOCOL TEXT: Plasma and extravascular levels of pterostilbene after oral administration
# Assay type: in vivo
# CONDITION: Swiss albino, mouse, kidney, 200 mg/kg b.w.; mice, 200 mg Pter/kg b.w. oral, 240 min; read-out: Pter in Kidney

MOLECULE | concentration at 240 min / nM
COc1cc(/C=C/c2ccc(O)cc2)cc(OC)c1 [PT, 3,5-dimethoxy-4′-hydroxystilbene] | 2000

====

# PROTOCOL TEXT: Plasma and extravascular levels of pterostilbene after oral administration
# Type: in vivo
# CONDITION: Swiss albino, mouse, kidney, 200 mg/kg b.w.; mice, 200 mg Pter/kg b.w. oral, 60 min; read-out: Pter in Kidney
PARAMETER: concentration at 60 min (µM)

COMPOUND | PARAMETER | ASSAY RESULT
COc1cc(/C=C/c2ccc(O)cc2)cc(OC)c1 [PT, 3,5-dimethoxy-4′-hydroxystilbene] | concentration at 60 min | 10

====

# PROTOCOL TEXT: Plasma and extravascular levels of pterostilbene after oral administration
# Assay type: in vivo
# CONDITION: Swiss albino, mouse, plasma, 200 mg/kg b.w.; mice, 200 mg Pter/kg b.w. oral, 720 min

COMPOUND | concentration at 720 min [nM]
COc1cc(/C=C/c2ccc(O)cc2)cc(OC)c1 [PT, 3,5-dimethoxy-4′-hydroxystilbene] | 1000

====

# PROTOCOL TEXT: Plasma and extravascular levels of pterostilbene after oral administration
# Format: in vivo
# CONDITION: Swiss albino, mouse, brain, 200 mg/kg b.w.; mice, 200 mg Pter/kg b.w. oral, 240 min; read-out: Pter in Brain

MOLECULE | UNITS | concentration at 240 min
COc1cc(/C=C/c2ccc(O)cc2)cc(OC)c1 [PT, 3,5-dimethoxy-4′-hydroxystilbene] | µM | 8

====

# PROTOCOL TEXT: Plasma and extravascular levels of pterostilbene after oral administration
# Type: in vivo
# CONDITION: Swiss albino, mouse, liver, 200 mg/kg b.w.; mice, 200 mg Pter/kg b.w. oral, 60 min; read-out: Pter in Liver
PARAMETER: concentration at 60 min

COMPOUND | ASSAY RESULT
COc1cc(/C=C/c2ccc(O)cc2)cc(OC)c1 [PT, 3,5-dimethoxy-4′-hydroxystilbene] | 17 µM
